B1: TMEM120A (parent)
chain: YQSFVQFLQYYYQSGCLYRLRALG

# Variants of: B1
# Protocol text: protein stability index of a GFP-peptide fusion (GPS, HEK-293T) (PSI 1-6); higher = more stable;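 further: lentivirally expressed fusions sorted by FACS into six bins by GFP to DsRed ratio, PSI derived from sequencing read proportions per bin multiplied by bin number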
# Protocol conditions: c terminus: a fixed tail appended
Given measured protein stability index, output class 1 if it is greater than or equal to 3 and class 0 if not.

1) YQSFVQFLQYMYQSGCLYRLRALG; class 1
2) YQSFVQFLQYYYQSGCLYRLYALG; class 0
3) YQSFVQFLQYYMQSGCLYRLRALG; class 1

Shift focus to the following entry.
Exercise: Dear colleague, could you confirm whether `YQSFVQFLQYYYQSGCLYRLRYLG` has protein stability index at or above 3?
Key: class 0
